These entries and their values trace back to paper PMC7038937.

- measured_target: dsRBD3/4 I105A S106A (Homo sapiens, UniProt O95793-2 102-274, I105A;S106A)
- Sequence (O95793 183-355 I186A/S187A): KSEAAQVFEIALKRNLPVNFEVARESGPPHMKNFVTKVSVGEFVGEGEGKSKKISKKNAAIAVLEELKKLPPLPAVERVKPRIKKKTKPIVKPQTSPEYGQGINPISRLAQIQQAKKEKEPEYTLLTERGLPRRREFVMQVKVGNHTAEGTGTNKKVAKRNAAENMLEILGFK
- experiment_notes: fluorescence anisotropy
pKd: −log10 of the molar value.
quantity_kind: pKd

> print(dat)
                                     binder  recorded.measurement
1  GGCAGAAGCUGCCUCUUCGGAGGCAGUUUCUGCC (structured_RNA) [top 2/3 ARF1 SBS (sARF1 SBS)]                  7.54
